molecular target: human GLP-1 receptor (human, UniProt P43220); test: cell-based or functional assay
Non-standard residues stand in square brackets, D forms with d. No end group written: not given here. Aib = CC(C)(N)C(=O)O
// NB: equality with 2 nM counts as not met; only EC50 (nM), cAMP, CHO/GLP-1R strictly below is met

Report whether reported EC50 (nM), cAMP, CHO/GLP-1R is lower than 2 nM (strictly) for H[Aib]QGTFTSDYAKYLDEKRAKEFVQWLMNTC [oxyntomodulin derivative of SEQ ID NO. 30]
not met

Criterion: EC50 (nM), cAMP, CHO/GLP-1R strictly below 2 nM. Is it met by H[Aib]QGTFTSDYSKYLDEKRAKEFVCWLMNT [oxyntomodulin derivative of SEQ ID NO. 23] ?
not met

For Y[Aib]QGTFTSDYSKYLDEKRAKEFVQWLMNTC [oxyntomodulin derivative of SEQ ID NO. 31] , is the recorded EC50 (nM), cAMP, CHO/GLP-1R below the cut-off of 2 nM?
not met

# check: EC50 (nM), cAMP, CHO/GLP-1R < 2 nM for HGEGTFTSDLSRQMEEEAVRLFIEWAAHSQGTFTSDYSRYLDK (not fully specified (residue 1, N-terminus); also: N-terminal CA (4-imidazoacetyl), whether it replaces His1 not given here) [oxyntomodulin derivative of SEQ ID NO. 11]
not met

EC50 (nM), cAMP, CHO/GLP-1R under 2 nM? Item: H[Aib]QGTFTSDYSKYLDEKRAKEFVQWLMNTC (also: possible ring formation not assignable from text) [oxyntomodulin derivative of SEQ ID NO. 25]
met

Determine whether this binder shows EC50 (nM), cAMP, CHO/GLP-1R lower than 2 nM (ties excluded): HSQGTFTSDYSRYLDEEAVELFIEWLMNTK [oxyntomodulin derivative of SEQ ID NO. 13]
not met

State whether 2 nM exceeds EC50 (nM), cAMP, CHO/GLP-1R recorded for H[Aib]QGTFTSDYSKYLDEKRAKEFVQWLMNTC (also: possible ring formation not assignable from text) [oxyntomodulin derivative of SEQ ID NO. 24] .
met
